# System: Hirse Sorte Mironovskoe 94
# Procedure text: field test of gametocidal activity (sterilisation of anthers)
# Assay type: in vivo
# Measurement conditions: V. Periode, 1%ige wäßrige Emulsion, 10 kg/ha
# Text: Die gametozide Aktivität der erfindungsgemäßen Sterilisationsmittel war in Feldversuch in verschiedenen bodenklimatischen Zonen mit Teilstücken von 10 m^2 Größe in drei-- bis viermaliger Wiederholung nachgewiesen. Jedes Sterilisationsmittel wurde mindestens 5 Jahre lang geprüft. Die Entwicklung der Perioden der Organogenese wird zytologisch überwacht. Die Behandlung von Pflanzen mit dem Sterilisationsmittel erfolgt am Anfang der fünften Periode der Organogenese nach Kupermann. […]
Some molecules, each annotated with its measured Kornzahl der Rispe bei freier Bestäubung.

Molecule	Test target	Experimental result
CC1C=CCCC1C(=O)[O-].[K+] (centres unmarked)	Hirse Sorte Mironovskoe 94	304,3
COC(=O)C1CCC=CC1C (centres unmarked)	Hirse Sorte Mironovskoe 94	327,6
CCCCOC(=O)c1ccccc1C(=O)OCCCC	Hirse Sorte Mironovskoe 94	351,4
CCCOC(=O)c1ccccc1C(=O)OCCC	Hirse Sorte Mironovskoe 94	308,7
CCCCCCOC(=O)c1ccccc1C(=O)OCCCCCC	Hirse Sorte Mironovskoe 94	311,5

In one line, give reported Kornzahl der Rispe bei freier Bestäubung of the entry O=C([O-])c1ccc(O)cc1.[Na+] [Beispiel 94, Natriumsalz der p-Hydroxybenzoesäure] . 400,7

In one line, give reported Kornzahl der Rispe bei freier Bestäubung of the entry `CCOC(=O)c1ccccc1C(=O)OCC` . 352,5

In one line, give reported Kornzahl der Rispe bei freier Bestäubung of the entry `C=CCOC(=O)c1ccccc1C(=O)OCC=C` . 335,2

###

Some compounds, each annotated with its measured Prozentsatz des Ansetzens der Körner bei freier Bestäubung.
# System: tetraploidem Roggen Sorte Ukrainskaya
# Procedure text: field test of gametocidal activity (sterilisation of anthers)
# Assay type: in vivo
# Measurement conditions: V. Periode, wäßrige Emulsion (concentration not given), 6 kg/ha, control = 100

Here is how some compounds turned out for Prozentsatz des Ansetzens der Körner bei freier Bestäubung.
Compound	Experimental result
CCOC(=O)c1ccccc1C(=O)OCC [Beispiel 57, Phthalsäurediäthylester]	83,4%
CC(C)COC(=O)c1ccccc1C(=O)OCC(C)C [Beispiel 59, Phthalsäurediisobutylester]	94,2%

In one line, give reported Prozentsatz des Ansetzens der Körner bei freier Bestäubung of the entry O=C(O)c1ccccc1 [Beispiel 58, Kaliumsalz der Benzoesäure] . 97,3%

In one line, give reported Prozentsatz des Ansetzens der Körner bei freier Bestäubung of the entry CC1C=CCCC1C(=O)O (stereo not shown) [Beispiel 56] . 87,2%
